The entries below come with measured GI50 values attached.
Test system: UACC-257
Assay: NCI tumour cell line growth inhibition, 48 h
Activity calls are given as the source filed them. Cut-off read from the data, not from the text of the source: active = GI50 up to about 1.1 µM and inactive = higher.

Record request: GI50 value, item CC(=O)Nc1ccc(C(=O)N[C@@H]2C(=O)N3[C@@H]2SC(C)(C)[C@@H]3C(=O)O)cn1
> 100 µM (inactive)

----------
Test system: PC-3
Assay: NCI tumour cell line growth inhibition, 48 h
Active and inactive are the calls of the source. No stated cut-off is given here; in the data, active = GI50 up to about 1.1 µM and inactive = higher. Where a SMILES comes first, the peptide text is derived from it. The star is where a group is joined. Boc = CC(C)(C)OC(=O)*
Return exactly one item of active, inactive

Previously resolved entries follow.
Please state the recorded outcome for this compound: COC(=O)C(C)NC(=O)C(CCSC)NC(=O)C(Cc1ccccc1)NC(=O)OC(C)(C)C (stereo not drawn) (Boc-Phe-Met-Ala-OMe; configuration not given here)
inactive

Also check COC1CC(OC2C(C)OC(OC3C(C)OC(OC4C(C)OC(O[C@H]5CC[C@@]6(C)C(=CC[C@]7(O)[C@@H]6C[C@@H](OC(=O)/C=C(\C)C(C)C)[C@@]6(C)[C@]7(O)CC[C@@]6(O)C(C)=O)C5)CC4OC)CC3OC)CC2OC)OC(C)C1O (stereo not given in full)
inactive

Also check O=c1cc(-c2ccccc2)oc2c1ccc1nc3ccccc3c(O)c12
inactive

Also check CCOC(=O)Cn1c(=O)ccn(COCCO)c1=O
inactive

Also check N[C@H](CCC(=O)NCP(=O)(O)O)C(=O)O
inactive

Also check CN(C)CCNC(=O)c1cccc(C(=O)Nc2ccccc2)c1[N+](=O)[O-]
inactive

Also check Nn1c(S)nnc1CCCCCCCCc1nnc(S)n1N
inactive

Also check CN(C)/C=C/c1c2c(nc3ccccc13)C(=O)c1cccnc1C2=O
active

Also check CCC1NC(=O)C(NC(=O)c2ncccc2O)C(C)OC(=O)C(c2ccccc2)NC(=O)C2CC(=O)CCN2C(=O)C(Cc2ccccc2)N(C)C(=O)C2CCCN2C1=O (stereo not given)
inactive

Okay, now this compound:
Please state the recorded outcome for this compound: CC(=O)Oc1ccc2cc(Oc3cc(Cl)c(Cl)cc3Cl)c(=O)oc2c1
inactive
